Reference source: patent US20240174727A1

Target: T1, rat NPRA (rat, UniProt P18910 29-1057)
T1 sequence (looked up): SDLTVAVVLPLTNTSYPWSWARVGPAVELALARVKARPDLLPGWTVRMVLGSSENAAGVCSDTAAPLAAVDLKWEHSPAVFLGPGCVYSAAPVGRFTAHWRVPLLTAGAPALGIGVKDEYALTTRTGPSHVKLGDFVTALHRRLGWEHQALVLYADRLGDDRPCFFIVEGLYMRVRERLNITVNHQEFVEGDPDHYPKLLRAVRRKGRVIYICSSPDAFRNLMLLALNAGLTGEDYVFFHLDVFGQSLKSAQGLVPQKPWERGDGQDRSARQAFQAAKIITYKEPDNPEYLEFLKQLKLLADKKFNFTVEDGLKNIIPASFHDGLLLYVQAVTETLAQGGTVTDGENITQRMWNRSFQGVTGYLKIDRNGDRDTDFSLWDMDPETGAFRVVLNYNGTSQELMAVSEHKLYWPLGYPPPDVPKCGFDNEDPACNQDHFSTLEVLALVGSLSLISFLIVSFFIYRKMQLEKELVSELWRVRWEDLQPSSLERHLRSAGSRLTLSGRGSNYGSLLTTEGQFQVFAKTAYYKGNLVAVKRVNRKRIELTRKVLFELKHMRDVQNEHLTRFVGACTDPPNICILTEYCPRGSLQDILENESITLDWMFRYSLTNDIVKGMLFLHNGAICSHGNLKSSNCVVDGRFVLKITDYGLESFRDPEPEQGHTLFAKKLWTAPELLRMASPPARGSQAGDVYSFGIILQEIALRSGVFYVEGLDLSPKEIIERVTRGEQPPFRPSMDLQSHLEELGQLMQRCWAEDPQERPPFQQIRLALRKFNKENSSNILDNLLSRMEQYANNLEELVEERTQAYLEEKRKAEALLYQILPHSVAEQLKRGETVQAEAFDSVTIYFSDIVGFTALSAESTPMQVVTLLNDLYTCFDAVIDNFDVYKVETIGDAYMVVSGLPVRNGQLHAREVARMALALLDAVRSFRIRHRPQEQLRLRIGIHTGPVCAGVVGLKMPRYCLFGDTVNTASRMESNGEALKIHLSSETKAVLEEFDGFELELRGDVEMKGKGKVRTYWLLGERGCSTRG
Test: cell-based or functional assay
Numbered stars: 1 amine (or outer) side, 2 acyl side, 3 side chain; on linkers, the order of the positions; unused ones are H or OH. Bridge positions count the residues as written; N and C are the ends. Square brackets hold non-standard residues; d marks the D form. * marks the point of attachment. thioacetal = thioacetal linkage between two cysteines (intrachain bond at the bracketed Cys); C20 diacid = O=C(O)CCCCCCCCCCCCCCCCCCC(=O)*; γGlu = O=C(O)[C@H](CCC(=O)[*:2])N[*:1]; 4Pal = N[C@@H](Cc1ccncc1)C(=O)O; Aib = CC(C)(N)C(=O)O; βAla = NCCC(=O)O
measured-metric: cGMP Assay (EC50, pM) w/BSA
Answer by giving the amount and then stating its unit.

Field: example entries. Status: answers known.
binder: {C20 diacid}-[γGlu]EKEKEKGS[4Pal]RRSSCFGGRIDRIGHQSGLGCPSFRHGGKSSGAPPPS-NH2 (bridge 15-31 via thioacetal) [Example 72]
cGMP Assay (EC50, pM) w/BSA: 1.07e+06 pM
//
binder: {C20 diacid}-[γGlu]EKEKEKGEK[βAla]RSSCFGGRIDRIGHYSGLGCPSFRHGGPSSGAPPPS-NH2 (bridge 15-31 via thioacetal) [Example 70]
cGMP Assay (EC50, pM) w/BSA: 712000 pM
//
binder: {C20 diacid}-[γGlu]EKEKEKGS[4Pal]KRSSCFGGKIDRIGHQSGLGCPSFRHGPSSGAPPPS-NH2 (disulfide 15-31) [Example 33]
cGMP Assay (EC50, pM) w/BSA: 112000 pM

# input for lookup
// lookup cGMP Assay (EC50, pM) w/BSA for {C20 diacid}-[γGlu]EKEKEKGS[4Pal]RRSSCFGGRIDRIGHQSGLGCPSFRHGGPPS[Aib]KPPPK-NH2 (bridge 15-31 via thioacetal) [Example 68] 1.28e+06 pM
